target entity: Human Factor D (Homo sapiens (Human), UniProt P00746)
Sequence (P00746 26-253): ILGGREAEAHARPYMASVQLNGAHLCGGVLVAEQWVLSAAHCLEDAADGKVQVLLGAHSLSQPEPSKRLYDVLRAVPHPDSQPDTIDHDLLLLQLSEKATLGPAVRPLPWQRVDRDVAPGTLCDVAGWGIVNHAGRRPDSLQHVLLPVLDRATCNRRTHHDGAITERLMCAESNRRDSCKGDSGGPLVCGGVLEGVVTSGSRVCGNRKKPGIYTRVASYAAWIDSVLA
experimental protocol: Human Factor D Assay
Assay type: biochemical
particulars: Table 3; Human Factor D 80 nM, substrate Z-L-Lys-SBzl; read-out: IC50 (Stars)
reported metric: IC50

Which value of IC50 has been reported for CC(=O)c1nn(CC(=O)N2C[C@H](F)C[C@H]2C(=O)Nc2nc(Br)ccc2C)c2ccc(-c3cnc(C)cn3)cc12 [Compound 467] in the records?
< 1000 nM

Endpoint output: IC50 of Cc1cccc(NC(=O)[C@@H]2[C@H]3CC[C@H](C3)N2C(=O)Cn2cc(C(N)=O)c3cc(-c4cnc(C)nc4)ccc32)n1 [Compound 473] . Value?
> 10000 nM

// IC50 lookup, key: COc1cc(Br)nc(NC(=O)[C@@H]2C[C@H]3C[C@H]3N2C(=O)Cn2nc(C(C)=O)c3cc(-c4cnc(OC)nc4)ccc32)c1 [Compound 433]
< 1000 nM
